tested on: SF-268 CNS; assay: NCI-60 one-dose screen, 48 h (100 = growth as untreated, 0 = no growth, -100 = all killed); conditions: 10 µM
About 83,000 compounds went through this panel and 20% of them were active in at least one assay; those are over-represented in the sample as a whole.
Examples of compounds with documented growth follow.
Dear colleague, please return just the value in %, with no unit written.

Answered examples (3):
CC1=C2C(=C[C@@](C)(C=O)[C@@H]2O)C(=O)[C@](C)(O)C12CC2 ... 12.2
C=C1[C@@H](C)C2[C@H](Cc3ccccc3)NC(=O)[C@]23[C@H](OC(C)=O)/C=C/[C@@](C)(O)C(=O)[C@@H](C)C/C=C/[C@H]3[C@@H]1O (stereo partly specified) ... 34.5
CC1=C[C@H]2O[C@@H]3C[C@H]4OC(=O)/C=C\C=C\[C@H]([C@@H](C)O)OCC/C(C)=C/C(=O)OC[C@@]2(CC1)[C@]4(C)[C@]31CO1 ... -1.73

growth reported for this compound `COc1cc(OC)c(S(=O)(=O)N(CCCl)CCCl)cc1C(=O)/C=C/c1ccc(Cl)cc1` : 73.2

growth reported for this compound `C/C=C\C(=O)O[C@@H]1CC2O[C@@H]3C=C(C)C(=O)C[C@]3(C)[C@]1(C)[C@]21CO1` : 0.463

growth reported for this compound `CC1=C(CCC=NNC(N)=O)C2=C(C)C3(CC3)[C@@](C)(O)C(=O)C2=C1` : -17.8

growth reported for this compound NC1CCc2cc(O)c(O)cc2C1 (stereo unspecified) : 104

growth reported for this compound COC1[C@@H]2C[C@H]3C(C)(C)O[C@@](C/C=C(/C)C(=O)O)(C2=O)[C@]32Oc3c(CC=C(C)C)c4c(c(O)c3C(=O)[C@H]12)C=CC(C)(C)O4 (stereo partly specified) : -45.5

growth reported for this compound `COc1cccc2c1cc([N+](=O)[O-])c1c(C(=O)O)cc3c(c12)OCO3` : 108

growth reported for this compound `CC1=C(CN(O)C(N)=O)C2=C(C)C3(CC3)[C@@](C)(O)C(=O)C2=C1` : -14.7

growth reported for this compound `CC1=C(CN(O)C(N)=O)C2=C(C)C3(CC3)[C@](C)(O)C(=O)C2=C1` : 13.6
